Quick list: melting point per entry.
test readout: melting point

{"columns": ["compound", "test readout", "measured result"],
 "data": [
  ["CCC(C)c1c(C(O)c2ccc(F)cc2F)c(C)nn1C (stereo not shown)", "melting point", "118 to 121 °C"],
  ["Cc1nn(C)c(CC(C)C)c1C(O)c1ccc(F)cc1F (stereo not shown)", "melting point", "129 to 133 °C"],
  ["Cc1nn(C)c(C2CCCCC2)c1C(O)c1ccc(F)cc1Cl (stereo not shown)", "melting point", "146 to 149 °C"],
  ["CCC(C)c1c(C(O)c2c(Cl)cccc2Cl)c(C)nn1C (stereo not shown)", "melting point", "175 to 178 °C"],
  ["Cc1nn(C)c(C(C)C)c1C(O)c1ccc(F)cc1Cl (stereo not shown)", "melting point", "152 to 154 °C"],
  ["Cc1nn(C)c(C2CCCCC2)c1C(O)c1ccc(F)cc1F (stereo not shown)", "melting point", "161 to 164 °C"],
  ["CCC(C)c1c(C(O)c2c(F)cc(F)cc2F)c(C)nn1C (stereo not shown)", "melting point", "114 to 117 °C"],
  ["CCC(C)c1c(C(O)c2ccc(F)cc2Cl)c(C)nn1C (stereo not shown)", "melting point", "128 to 131 °C"],
  ["Cc1nn(C)c(CC(C)C)c1C(O)c1ccc(F)cc1Cl (stereo not shown)", "melting point", "159 to 162 °C"],
  ["Cc1nn(C)c(C2CCCCC2)c1Oc1ccc(F)cc1Cl", "melting point", "75 to 79 °C"]
]}

----------
- Test system: Blumeria graminis f sp. tritici
- method: Test D: wheat powdery mildew, preventive spray on wheat seedlings, visual disease rating
- Assay type: in vivo
- study conditions: 50 ppm (*), 100 = 100% disease control, 0 = no control
Marks after values point to notes of the source that are not given here.
Each entry below carries its reported Test D disease control rating.
test readout: Test D disease control rating

{"columns": ["compound", "measured result"],
 "data": [
  ["CCC(C)c1c(Nc2c(F)cc(F)cc2F)c(C)nn1C (centres unmarked)", "0* %"],
  ["CCC(C)c1c(Nc2ccc(F)cc2Cl)c(C)nn1C (centres unmarked)", "0* %"],
  ["CCC(C)c1c(Nc2c(F)cc([N+](=O)[O-])cc2F)c(C)nn1C (centres unmarked)", "0* %"],
  ["CCC(C)c1c(Nc2ccc(F)c(F)c2)c(C)nn1C (centres unmarked)", "26* %"],
  ["Cn1nc(Br)c(C(O)c2ccc(F)cc2Cl)c1C1=CCCCC1 (centres unmarked)", "64* %"]
]}

----------
- Test system: Puccinia recondita f sp. tritici
- method: Test A: wheat leaf rust, preventive spray on wheat seedlings, visual disease rating
- Format: in vivo
- study conditions: 50 ppm (*), 100 = 100% disease control, 0 = no control
Listed compounds paired with reported pest or weed control at 50 ppm
test readout: pest or weed control at 50 ppm (%)

{"columns": ["compound", "test readout", "measured result"],
 "data": [
  ["Cc1nn(C)c(CC(C)C)c1C(O)c1ccc(F)cc1F (centres unmarked)", "pest or weed control at 50 ppm", 74],
  ["CCC(C)c1c(C(O)c2c(F)cc(F)cc2F)c(C)nn1C (centres unmarked)", "pest or weed control at 50 ppm", 97],
  ["CCC(C)c1c(C(O)c2c(Cl)cccc2Cl)c(C)nn1C (centres unmarked)", "pest or weed control at 50 ppm", 99],
  ["CCC(C)c1c(C(O)c2ccc(F)cc2Cl)c(C)nn1C (centres unmarked)", "pest or weed control at 50 ppm", 100],
  ["Cc1nn(C)c(C(C)C)c1C(O)c1ccc(F)cc1Cl (centres unmarked)", "pest or weed control at 50 ppm", 98]
]}
